Species on record: Rattus norvegicus
experiment summary: Open TG-GATES - Regimen: Daily Repeat
Type: toxicity, organism-based, Sprague-Dawley
Design: regimen Daily Repeat, gender Male, age 6 weeks
assay setup: in vivo, po, 300 mg/kg, […], tissue Blood, route gavage, dose level Middle, time 7 day
property name: Fbg (mg/dL)
Answers are plain numbers, in mg/dL.

As a guide, the following entries are already answered.
[[record]]
molecule = "COc1ccc2[nH]c([S+]([O-])Cc3ncc(C)c(OC)c3C)nc2c1 (stereo not given) [OMEPRAZOLE]"
quantitative_readout = 216.8

[[record]]
molecule = "NC(N)=Nc1nc(CSCCC(N)=NS(N)(=O)=O)cs1 [FAMOTIDINE]"
quantitative_readout = 225

[[record]]
molecule = "COC1=CC(=O)C[C@@H](C)[C@]12Oc1c(Cl)c(OC)cc(OC)c1C2=O [GRISEOFULVIN]"
quantitative_readout = 224

[[record]]
molecule = "CCOc1ccc(NC(=O)CC(C)O)cc1 (stereo not given) [BUCETIN]"
quantitative_readout = 278.6


Ask: Which measured Fbg value corresponds to CCOC(=O)CCC(=O)O[C@H]1[C@H](O[C@@H]2[C@@H](C)[C@H](O[C@H]3C[C@@](C)(OC)[C@@H](O)[C@H](C)O3)[C@@H](C)C(=O)O[C@H](CC)[C@@](C)(O)[C@H](O)[C@@H](C)C(=O)[C@H](C)C[C@@]2(C)O)O[C@H](C)C[C@@H]1N(C)C [ERYTHROMYCIN ETHYLSUCCINATE] ?
Reply: 331.6

Reference source: ChEMBL document CHEMBL3885861
